FYI, the data here is from the kinase profiling compilation of Christmann-Franck et al. (2016).

In this section, each of the molecules is paired with its reported residual activity.
target: BRSK2 (human); assay: radiometric filter-binding kinase assay, Kinase HotSpot; conditions: compound 0.5 µM; ATP 10 µM
Report only the number, with the unit % understood.

Consider the following illustrative entries.
COc1cc2ncc(-c3ccccc3)nc2cc1OC; 103
COc1ccc(OC)c2c(=S)c3ccccc3[nH]c12; 92.5
O=C1NC(=O)C(c2cn(CCCO)c3ncccc23)=C1c1cnccn1; 90.4

query: Given the molecule `COc1cc2ncnc(N3CCN(C(=O)Nc4ccc(Oc5ccccc5)cc4)CC3)c2cc1OC` , what is its reported residual activity?
result: 94.1

query: Name the recorded residual activity for `CN([C@@H](Cc1ccc(OS(=O)(=O)c2cccc3cnccc23)cc1)C(=O)N1CCN(c2ccccc2)CC1)S(=O)(=O)c1cccc2cnccc12` .
result: 100

query: Recorded residual activity for `O=C(Nc1cccc(Nc2cc(Nc3cccc(C(F)(F)F)c3)ncn2)c1)C1CC1` , please?
result: 95.8

query: Request the reported residual activity associated with `CCN(CC)CCCCN1c2ccccc2Oc2ccc(Cl)cc21`
result: 107

query: Param item = `CC(=O)O/N=C1\C(=C2\C(=O)Nc3cc(Br)ccc32)Nc2ccccc21` ; retrieve measured residual activity.
result: 43.4

query: Could you share which residual activity value was measured for `CCn1cnc2c(Nc3cccc(Cl)c3)nc(N[C@@H]3CCCC[C@@H]3N)nc21` ?
result: 94

---

biological target: CDK5 CDK5R1 p35 (human) (UniProt Q00535+Q15078); assay: radiometric filter-binding kinase assay, Kinase HotSpot; conditions: compound 0.5 µM; ATP 10 µM
propertyName: residual activity (%)
Express it in %; write the number only.

O=C(O)/C=C/c1cc(Br)c(Br)c(Br)c1Br; 92.4
Cc1nc2cc3nc(-c4cccs4)cnc3cc2n1C; 107
CC(C)[C@H](CO)Nc1nc(Nc2cc(N)cc(Cl)c2)c2ncn(C(C)C)c2n1; 0.133
Nc1nnc2[nH]c3ccccc3nc1-2; 88.7

query: What measured residual activity goes with `O=C1Nc2ccccc2/C1=C1\Nc2ccccc2\C1=N/O` ?
result: 23.8

query: Item under review: `CCN(CC)CCCCN1c2ccccc2Oc2ccc(Cl)cc21` . Reported residual activity?
result: 90.3

query: residual activity lookup needed for `CC(=O)O/N=C1\C(=C2\C(=O)Nc3cc(Br)ccc32)Nc2ccccc21` , thanks.
result: 24.7

query: Which residual activity is reported for this molecule? `CC(C)c1nn(-c2c(Cl)cccc2Cl)c2nc(Cc3ccc(OCCO)cc3)nc(O)c12`
result: 9.64

query: I am curious: what residual activity value has been reported for O=C1Nc2ccccc2/C1=C1/Nc2ccccc2/C1=N\OCCC(O)CO (stereo not drawn) ?
result: 14.3

query: Which value of residual activity has been reported for `O=C1NC(=O)/C(=C\c2ccc3nccnc3c2)S1` in the records?
result: 97.9

query: Could you share which residual activity value was measured for `Cn1cnc2cc3c(Nc4cccc(Br)c4)ncnc3cc21` ?
result: 84.6

query: Data request, read-out residual activity, for `COc1cc2ncnc(N3CCN(C(=O)Nc4ccc(Oc5ccccc5)cc4)CC3)c2cc1OC`
result: 99.8

query: Need residual activity of `CN([C@@H](Cc1ccc(OS(=O)(=O)c2cccc3cnccc23)cc1)C(=O)N1CCN(c2ccccc2)CC1)S(=O)(=O)c1cccc2cnccc12` , thanks.
result: 99.5

query: Which residual activity value belongs to `O=C1NC(=O)C(c2cn(CCCO)c3ncccc23)=C1c1cnccn1` ?
result: 73.9

query: So what does the record say about residual activity for `CN(C)C[C@H]1CCn2c(c(C3=C(c4cn(C)c5ccccc45)C(=O)NC3=O)c3ccccc32)C1` ?
result: 85.4

query: Fill in: residual activity of `CCn1cnc2c(Nc3cccc(Cl)c3)nc(N[C@@H]3CCCC[C@@H]3N)nc21` is ___
result: 13.2

query: Given the entry `O=C(CCCc1ccc(-c2ccccc2F)cc1)Nc1ccc(O)cc1` , report its measured residual activity.
result: 92.5

query: Param item = `Nc1nccc(-c2c(-c3ccc(F)cc3)ncn2C2CCNCC2)n1` ; retrieve measured residual activity.
result: 102

query: Look up residual activity: `Oc1ccc(Nc2nc(-c3ccc(Cl)cc3)cs2)cc1`
result: 104

query: Look up residual activity: `Cn1sc(=O)n(Cc2ccccc2)c1=O`
result: 90.1

query: Query: residual activity; subject: `O=C1NC(=O)C(c2c[nH]c3ccccc23)=C1c1c[nH]c2ccccc12`
result: 79.5

query: I am curious: what residual activity value has been reported for `c1cc(-c2cnn3cc(-c4ccc(OCCN5CCCCC5)cc4)cnc23)ccn1` ?
result: 67.7

query: Look at this molecule and give its reported residual activity. `O=C1Cc2c([nH]c3ccc(Br)cc23)-c2ccccc2N1`
result: 70.8

---

biological target: CAMK2D (human); test: radiometric filter-binding kinase assay, Kinase HotSpot; conditions: compound 0.5 µM; ATP 10 µM
propertyName: residual activity (%)
Please reply with the bare figure in % and do not write the unit itself.

Completed entries (count: 5):
CC(C)[C@H](CO)Nc1nc(Nc2cc(N)cc(Cl)c2)c2ncn(C(C)C)c2n1; 87.3
CCn1cnc2c(Nc3cccc(Cl)c3)nc(N[C@@H]3CCCC[C@@H]3N)nc21; 89
Cn1nc2c3c(cccc31)C(=O)c1ccccc1-2; 90
COc1cc2ncnc(N3CCN(C(=O)Nc4ccc(Oc5ccccc5)cc4)CC3)c2cc1OC; 70.9
CN(C)C[C@H]1CCn2c(c(C3=C(c4cn(C)c5ccccc45)C(=O)NC3=O)c3ccccc32)C1; 82.4

query: Look up residual activity: `O=C1Nc2ccccc2/C1=C1\Nc2ccccc2\C1=N/O`
result: 60.4

query: Dear colleague, I am looking for the recorded residual activity of the following compound: `COc1ccc(CNC(=O)Nc2ncc([N+](=O)[O-])s2)cc1`
result: 98.3

query: Record request: residual activity value, item `O=C(Nc1cccc(Nc2cc(Nc3cccc(C(F)(F)F)c3)ncn2)c1)C1CC1`
result: 101

query: Bench note: what residual activity did `Cc1nc2cc3nc(-c4cccs4)cnc3cc2n1C` show?
result: 100

query: Quick one: residual activity for `O=C1NC(=O)C(c2c[nH]c3ccccc23)=C1c1c[nH]c2ccccc12` ?
result: 65

query: Name the recorded residual activity for `Nc1nnc2[nH]c3ccccc3nc1-2` .
result: 89.4

---

residual activity: recorded values
target: ZAP70 (human) (UniProt P43403); assay: radiometric filter-binding kinase assay, Kinase HotSpot; conditions: compound 0.5 µM; ATP 10 µM
Sequence (P43403 whole entry, looked up): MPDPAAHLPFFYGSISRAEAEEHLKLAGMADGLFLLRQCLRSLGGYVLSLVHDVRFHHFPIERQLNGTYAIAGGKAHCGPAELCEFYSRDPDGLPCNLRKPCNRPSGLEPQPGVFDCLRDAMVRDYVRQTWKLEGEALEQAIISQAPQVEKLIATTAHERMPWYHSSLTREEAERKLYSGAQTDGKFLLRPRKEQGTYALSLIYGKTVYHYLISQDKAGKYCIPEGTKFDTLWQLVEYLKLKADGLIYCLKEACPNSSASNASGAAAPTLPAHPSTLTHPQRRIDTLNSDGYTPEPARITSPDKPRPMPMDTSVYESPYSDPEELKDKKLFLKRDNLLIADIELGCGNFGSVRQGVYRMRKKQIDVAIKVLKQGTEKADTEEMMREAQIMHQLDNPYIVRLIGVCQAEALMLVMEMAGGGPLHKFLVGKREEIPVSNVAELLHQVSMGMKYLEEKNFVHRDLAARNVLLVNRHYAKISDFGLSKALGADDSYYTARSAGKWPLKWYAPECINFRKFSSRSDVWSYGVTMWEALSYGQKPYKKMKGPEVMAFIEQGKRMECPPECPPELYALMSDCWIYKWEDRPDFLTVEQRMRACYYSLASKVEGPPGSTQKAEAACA
Express the result in % but write the number alone.

O=C(O)/C=C/c1cc(Br)c(Br)c(Br)c1Br; 98.5

query: Recorded residual activity of `O=C(CCCc1ccc(-c2ccccc2F)cc1)Nc1ccc(O)cc1` , please.
result: 99.7

query: I am curious: what residual activity value has been reported for `Cc1nc2cc3nc(-c4cccs4)cnc3cc2n1C` ?
result: 93.3

query: Param item = `Nc1nnc2[nH]c3ccccc3nc1-2` ; retrieve measured residual activity.
result: 102

---

biological target: SGK3 (human) (UniProt Q96BR1); assay: radiometric filter-binding kinase assay, Kinase HotSpot; details: compound 0.5 µM; ATP 10 µM
Sequence (Q96BR1 whole entry, looked up): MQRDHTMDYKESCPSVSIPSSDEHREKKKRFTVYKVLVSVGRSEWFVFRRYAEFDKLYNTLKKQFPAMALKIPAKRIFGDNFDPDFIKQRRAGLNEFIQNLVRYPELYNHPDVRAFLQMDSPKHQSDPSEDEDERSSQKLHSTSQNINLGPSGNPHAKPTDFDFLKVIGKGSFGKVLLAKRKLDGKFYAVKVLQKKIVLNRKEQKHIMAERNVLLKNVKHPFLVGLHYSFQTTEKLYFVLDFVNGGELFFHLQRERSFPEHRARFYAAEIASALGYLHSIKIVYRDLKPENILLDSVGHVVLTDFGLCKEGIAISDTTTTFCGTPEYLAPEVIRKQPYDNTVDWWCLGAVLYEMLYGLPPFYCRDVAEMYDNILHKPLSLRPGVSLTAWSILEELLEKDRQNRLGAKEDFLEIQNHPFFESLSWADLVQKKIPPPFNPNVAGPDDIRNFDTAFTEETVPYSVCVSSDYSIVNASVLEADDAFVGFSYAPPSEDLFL
propertyName: residual activity (%)
Your answer should be a plain number; it is taken to be in %.

Record excerpt, results attached:
O=C(Nc1cccc(Nc2cc(Nc3cccc(C(F)(F)F)c3)ncn2)c1)C1CC1; 106
Nc1nccc(-c2c(-c3ccc(F)cc3)ncn2C2CCNCC2)n1; 97.5
CN(C)C[C@H]1CCn2c(c(C3=C(c4cn(C)c5ccccc45)C(=O)NC3=O)c3ccccc32)C1; 95
O=C1Nc2ccccc2/C1=C1\Nc2ccccc2\C1=N/O; 102
Nc1nnc2[nH]c3ccccc3nc1-2; 96.6
O=C1Cc2c([nH]c3ccc(Br)cc23)-c2ccccc2N1; 107
Oc1ccc(Nc2nc(-c3ccc(Cl)cc3)cs2)cc1; 98
CCN(CC)CCCCN1c2ccccc2Oc2ccc(Cl)cc21; 101

query: Which value of residual activity has been reported for `CN([C@@H](Cc1ccc(OS(=O)(=O)c2cccc3cnccc23)cc1)C(=O)N1CCN(c2ccccc2)CC1)S(=O)(=O)c1cccc2cnccc12` in the records?
result: 104

query: Fill blank: measured residual activity of the molecule `Cn1cnc2cc3c(Nc4cccc(Br)c4)ncnc3cc21` is ____.
result: 107

---

biological target: NEK2 (human) (UniProt P51955); assay: radiometric filter-binding kinase assay, Kinase HotSpot; details: compound 0.5 µM; ATP 10 µM
Sequence (P51955 whole entry, looked up): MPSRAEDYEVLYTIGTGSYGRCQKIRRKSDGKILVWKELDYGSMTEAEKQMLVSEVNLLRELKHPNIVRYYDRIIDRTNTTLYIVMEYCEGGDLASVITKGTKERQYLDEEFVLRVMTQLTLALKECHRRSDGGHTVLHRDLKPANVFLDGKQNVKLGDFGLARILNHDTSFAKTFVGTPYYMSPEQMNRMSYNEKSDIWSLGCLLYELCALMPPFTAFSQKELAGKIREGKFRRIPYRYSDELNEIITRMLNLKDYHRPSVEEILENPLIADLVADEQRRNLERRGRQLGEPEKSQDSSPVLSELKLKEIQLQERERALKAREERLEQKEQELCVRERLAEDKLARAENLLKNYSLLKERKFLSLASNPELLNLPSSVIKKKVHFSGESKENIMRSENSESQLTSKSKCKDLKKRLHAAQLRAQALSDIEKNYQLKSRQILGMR
propertyName: residual activity (%)
Give a bare numeral; the unit % is implied.

query: Can you share its residual activity? I mean this molecule: `Nc1nccc(-c2c(-c3ccc(F)cc3)ncn2C2CCNCC2)n1`
result: 103

---

molecular target: CDK6 CCND1 (human) (UniProt Q00534+P24385); assay: radiometric filter-binding kinase assay, Kinase HotSpot; settings: compound 0.5 µM; ATP 10 µM
Sequence (P24385 whole entry, looked up): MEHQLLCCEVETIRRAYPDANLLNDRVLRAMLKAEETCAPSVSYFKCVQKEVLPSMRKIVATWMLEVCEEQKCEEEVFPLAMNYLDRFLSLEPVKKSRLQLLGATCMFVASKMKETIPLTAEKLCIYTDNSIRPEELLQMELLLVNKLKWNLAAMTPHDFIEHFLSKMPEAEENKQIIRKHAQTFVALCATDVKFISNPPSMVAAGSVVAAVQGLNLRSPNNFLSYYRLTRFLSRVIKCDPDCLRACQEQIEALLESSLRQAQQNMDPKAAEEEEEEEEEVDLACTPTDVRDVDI
Sequence (Q00534 whole entry, looked up): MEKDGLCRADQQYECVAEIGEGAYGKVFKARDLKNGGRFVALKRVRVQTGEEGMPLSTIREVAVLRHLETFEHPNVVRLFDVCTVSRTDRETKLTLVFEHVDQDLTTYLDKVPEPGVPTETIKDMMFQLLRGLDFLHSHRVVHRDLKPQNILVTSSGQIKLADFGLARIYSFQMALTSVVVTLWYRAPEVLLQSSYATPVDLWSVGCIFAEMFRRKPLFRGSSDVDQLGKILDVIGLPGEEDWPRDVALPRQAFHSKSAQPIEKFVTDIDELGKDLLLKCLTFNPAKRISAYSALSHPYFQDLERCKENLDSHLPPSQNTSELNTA
propertyName: residual activity
Please state the number and follow it with the unit.

Please review the entries below; each comes with its answer.
Cn1nc2c3c(cccc31)C(=O)c1ccccc1-2; 88%
CC(C)c1nn(-c2c(Cl)cccc2Cl)c2nc(Cc3ccc(OCCO)cc3)nc(O)c12; 19.8%
O=C(O)/C=C/c1cc(Br)c(Br)c(Br)c1Br; 102%
Cn1cnc2cc3c(Nc4cccc(Br)c4)ncnc3cc21; 107%
O=C1NC(=O)C(c2c[nH]c3ccccc23)=C1c1c[nH]c2ccccc12; 88.7%

query: Look at this compound and give its reported residual activity. `O=C1NC(=O)/C(=C\c2ccc3nccnc3c2)S1`
result: 97.5%
